All figures here come from the supplement of paper PMC9112550.

Test system: Escherichia coli TOP10;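 also: peptides expressed intracellularly from a pBAD plasmid library in pooled LB shake-flask culture, induced with 0.3% L-arabinose, DNA abundance read by NGS, three biological replicates, DESeq2 with apeglm shrinkage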
Test: shrunken log2 fold change of peptide-encoding DNA abundance (4.5 h post-induction vs induction); higher = less antimicrobial activity (less host growth inhibition)
Stated Conditions: time post-induction: 4.5 h; library: site-saturation at positions 5, 18, 19, 20
Given measured shrunken log2 fold change, output Met if it is greater than or equal to -0.002 and Not met if not.

Below, 5 sequences whose answers are already recorded.
RRIRQRPPRLPRPRPRPHLMPRP :: Met
RRIRSRPPRLPRPRPRPKHCPRP :: Not met
RRIRGRPPRLPRPRPRPDWVPRP :: Met
RRIRLRPPRLPRPRPRPASFPRP :: Not met
RRIRCRPPRLPRPRPRPNFYPRP :: Not met

Decide: is the reported value of shrunken log2 fold change for RRIRLRPPRLPRPRPRPNWLPRP equal to or greater than -0.002?
Met

Decide: is the reported value of shrunken log2 fold change for RRIRYRPPRLPRPRPRPSDEPRP equal to or greater than -0.002?
Not met

Decide: is the reported value of shrunken log2 fold change for RRIRFRPPRLPRPRPRPYWFPRP equal to or greater than -0.002?
Not met

Decide: is the reported value of shrunken log2 fold change for RRIRRRPPRLPRPRPRPYVGPRP equal to or greater than -0.002?
Not met

Decide: is the reported value of shrunken log2 fold change for RRIRFRPPRLPRPRPRPCDTPRP equal to or greater than -0.002?
Not met

Decide: is the reported value of shrunken log2 fold change for RRIRGRPPRLPRPRPRPDDYPRP equal to or greater than -0.002?
Met

Decide: is the reported value of shrunken log2 fold change for RRIRVRPPRLPRPRPRPLSHPRP equal to or greater than -0.002?
Not met

Decide: is the reported value of shrunken log2 fold change for RRIRHRPPRLPRPRPRPECLPRP equal to or greater than -0.002?
Not met

Decide: is the reported value of shrunken log2 fold change for RRIRRRPPRLPRPRPRPFYTPRP equal to or greater than -0.002?
Not met

Decide: is the reported value of shrunken log2 fold change for RRIRWRPPRLPRPRPRPIHGPRP equal to or greater than -0.002?
Met

Decide: is the reported value of shrunken log2 fold change for RRIRIRPPRLPRPRPRPWGCPRP equal to or greater than -0.002?
Not met

Decide: is the reported value of shrunken log2 fold change for RRIRRRPPRLPRPRPRPQRSPRP equal to or greater than -0.002?
Met

Decide: is the reported value of shrunken log2 fold change for RRIRIRPPRLPRPRPRPKLHPRP equal to or greater than -0.002?
Not met

Decide: is the reported value of shrunken log2 fold change for RRIRYRPPRLPRPRPRPQWRPRP equal to or greater than -0.002?
Met

Decide: is the reported value of shrunken log2 fold change for RRIRPRPPRLPRPRPRPSYTPRP equal to or greater than -0.002?
Not met

Decide: is the reported value of shrunken log2 fold change for RRIRSRPPRLPRPRPRPHLGPRP equal to or greater than -0.002?
Not met

Decide: is the reported value of shrunken log2 fold change for RRIRLRPPRLPRPRPRPKWCPRP equal to or greater than -0.002?
Met

Decide: is the reported value of shrunken log2 fold change for RRIRFRPPRLPRPRPRPNTQPRP equal to or greater than -0.002?
Not met

Decide: is the reported value of shrunken log2 fold change for RRIRQRPPRLPRPRPRPLYQPRP equal to or greater than -0.002?
Not met

Decide: is the reported value of shrunken log2 fold change for RRIRMRPPRLPRPRPRPNPHPRP equal to or greater than -0.002?
Met

Decide: is the reported value of shrunken log2 fold change for RRIRPRPPRLPRPRPRPSFHPRP equal to or greater than -0.002?
Met

Decide: is the reported value of shrunken log2 fold change for RRIRKRPPRLPRPRPRPPCTPRP equal to or greater than -0.002?
Met

Decide: is the reported value of shrunken log2 fold change for RRIRQRPPRLPRPRPRPSNTPRP equal to or greater than -0.002?
Not met

Decide: is the reported value of shrunken log2 fold change for RRIRKRPPRLPRPRPRPLAPPRP equal to or greater than -0.002?
Met

Decide: is the reported value of shrunken log2 fold change for RRIRFRPPRLPRPRPRPYPAPRP equal to or greater than -0.002?
Not met
